Provide the recorded inhibition for the entries that follow.
- assay-text: inhibitors of TWEAK-Fn14 signaling, primary screen, luciferase reporter cells, uHTS (AID 1159606)
- assay-setup: TWEAK-stimulated Fn14 reporter cells, luciferase luminescence, 8 h; at 10 µM; hits give high values
Screen size: about 360,000 compounds; about 7,300 (2%) were called active. Many of the other results were omitted from the sample, so actives are more common in it than they were.
Expressed in %, but write only the number.

query: What value of inhibition has been recorded for this entry: `O=S(=O)(NCc1ccccc1Cl)c1cnc[nH]1`
result: -2.25

query: What do we get for CC(C(=O)O)n1cnc2sc3c(c2c1=O)CCCC3 (stereo unspecified) ?
result: -20.1

query: What do we get for `COC(=O)C1=C(C(=O)OC)[C@@H]2N(C)c3ccccc3[C@@]23C[C@@H](C(=O)OC)N(C(C)=O)C3=N1` ?
result: -3.56

query: What do we get for `S=c1[nH]nc2c3c4c(sc3ncn12)CCCC4` ?
result: 3.72

query: What do we get for `CC(=O)OCCN(CCCn1c(-c2ccncc2)nc2ccccc21)c1nc(-c2ccc(C)cc2)cs1` ?
result: 4.36

query: What do we get for `O=S(=O)(c1ccccc1)N1CN(Cc2ccc(F)cc2)c2nc3ccccc3nc21` ?
result: 11

query: What do we get for O=S1(=O)CC(N2CCN(Cc3ccccc3F)CC2)CN1Cc1cn(Cc2ccccc2)nn1 (stereo unspecified) ?
result: 5.09

query: What do we get for `c1nnc2c3c4c(sc3ncn12)CCC4` ?
result: 58.9

query: What do we get for `O=C(Nc1ccccc1)N1CCN(C2c3ccccc3-c3ccccc32)CC1` ?
result: -2.27

query: What do we get for `COc1ccc(OC)c(NC(=O)c2ccc3c(c2)CCN3S(C)(=O)=O)c1` ?
result: -3.45

query: What do we get for Cc1nc2ccc(NC(=O)N3CCC(c4ccccc4)C3)cc2nc1C (stereo unspecified) ?
result: 0.79

Data provenance is PubChem BioAssay AID1159606.
